Provide the reported TGI of each item.
Tested on: EKVX NSCLC
Test Description: NCI tumour cell line growth inhibition, 48 h

// worked examples, TGI included
// query Please look at this molecule and report its TGI: "O=C1c2ccccc2-c2nnc(-c3ccc([N+](=O)[O-])cc3)cc21"
// result > 10 µM

// query Please look at this molecule and report its TGI: "COC(=O)/C(C)=N/NC(=S)SC"
// result > 100 µM

// query Please look at this molecule and report its TGI: NC(CC(=O)OCc1ccccc1)C(=O)OCc1ccccc1 (centres undefined)
// result > 100 µM

// query Please look at this molecule and report its TGI: "CCOC(=O)/C(C#N)=C/Nc1c(C)n(C)n(-c2ccccc2)c1=O"
// result > 100 µM

// query Please look at this molecule and report its TGI: "Cc1cc(C)c(C(=O)CC(=O)c2cccnc2)c(C)c1"
// result 69.6 µM

// query Please look at this molecule and report its TGI: NC1C/C(=N\O)c2c(Cl)sc(Cl)c21 (centres undefined)
// result 34 µM

// query Please look at this molecule and report its TGI: "O=c1cccccc1NCCCNc1cccccc1=O"
// result > 100 µM

// query Please look at this molecule and report its TGI: "C1=C(CC2=C[P+](c3ccccc3)(c3ccccc3)C=C(c3ccccc3)O2)OC(c2ccccc2)=C[P+]1(c1ccccc1)c1ccccc1"
// result 1.68 µM

Shifting focus to the molecule that follows.
// query Please look at this molecule and report its TGI: CCCCCCCCCCCCCCCCP(=O)(O)OCC(N)C(=O)O (centres undefined)
// result > 100 µM

###

System: MDA-MB-435
Test Description: NCI tumour cell line growth inhibition, 48 h
Readout Kind: TGI (µM)
Answers are plain numbers, in µM.

Look up TGI for the entries below, preserving their order.
1. c1ccc(C2=NNC3c4ccccc4-c4ccccc4N3C2)cc1 (stereo not given)
2. CC(=O)OCC(OC(C)=O)C1C[C@H]2O[C@@H]3[C@H](C[C@H]2O1)O[C@@]1(C[C@@H]3C)C[C@H](C)[C@@H]2O[C@]3(C[C@@H]2O1)C[C@H]1O[C@H]2[C@H](C)[C@H]4OC(=O)C[C@H]5CC[C@@H]6OC7[C@H]8O[C@]9(CC[C@H]%10CC(=O)[C@H](CC[C@H]%11C[C@@H](C)C(=O)C(C[C@@H]4O[C@H]2C[C@H]1O3)O%11)O%10)CC8O[C@@H]7[C@@H](O9)[C@H]6O5 (stereo not given in full)

// result
[68.1, 0.0171]

###

Test system: IGROV1 ovarian
Test Description: NCI tumour cell line growth inhibition, 48 h
Readout Kind: TGI

// query Please look at this compound and report its TGI: CC12Nc3c(Cl)cc(Cl)cc3N1C(=O)c1ccccc12 (stereo unspecified)
// result > 100 µM

Look up TGI for the entries below, preserving their order.
1. O=C(O)CN(c1ccccc1)S(=O)(=O)c1ccccc1[N+](=O)[O-]
2. CCN(CC)c1sc(N(CC)CC)c2c1SSSSS2
3. CC(=O)OC1CC(O)C23COC(O)C1(C)C2CC(O)C1(C)C3C(=O)C(O)C2(C)C(c3ccoc3)CC3OC321 (stereo unspecified)
4. Cn1cc(C(=O)c2ccccc2)ccc1=O
5. CN(C)CCn1c(=O)c2ccc(NCCNCCO)c3c(=O)c4ccccc4n(c1=O)c23
6. COc1ccc(C(C)c2cc3c(cc2OC)OCO3)cc1 (stereo unspecified)
7. CC[C@]12C=CCN3CC[C@@]4(c5cc(Br)c(OC)c([N+](=O)[O-])c5N(C)[C@H]4[C@@](O)(C(=O)OC)[C@@H]1OC(C)=O)[C@@H]32
8. CC(C)OC(=O)c1ccc(NCC2=CC(=O)C=CC2=O)cc1

// result
["> 100 µM", "2.77 µM", "> 100 µM", "> 100 µM", "1.87 µM", "7.47 µM", "61.4 µM", "26.4 µM"]

Look up TGI for the entries below, preserving their order.
1. CCN(CC)c1ccc(C(=N)c2ccc(N(CC)CC)cc2)cc1
2. CC(=O)[CH-]C(=O)c1ccccc1.CC(=O)[CH-]C(=O)c1ccccc1.O=C([O-])c1ccc([O-])cc1.O=C([O-])c1ccc([O-])cc1.[Ti+4]

// result
1. 4.43 µM
2. > 100 µM

###

System: SK-MEL-5 melanoma
Test Description: NCI tumour cell line growth inhibition, 48 h; in the data active = GI50 below about 0.43 µM; inactive = the rest
Valid outcomes are listed here; reply with one: active, inactive

These recorded examples may help you get a feel for the data.
// query Hi team, can someone confirm the assay call for "CCCCN=C(N)c1ccc(OCCSCCOc2ccc(C(N)=NCCCC)cc2)cc1" ?
// result inactive

// query Hi team, can someone confirm the assay call for "COc1cc(NC(=O)c2cc(O)c(CC=C(C)C)c(O)c2)cc2c1O[C@]1(C)CC[C@@H](O)C(C)(C)[C@H]1C2" ?
// result inactive

// query Hi team, can someone confirm the assay call for "COc1ccc(C(=O)COc2cccc(/C=C3\COc4ccc5ccccc5c4C3=O)c2)cc1" ?
// result inactive

// query Hi team, can someone confirm the assay call for "CN(C)c1ccc(N)cc1" ?
// result inactive

Attention now turns to another entry.
// query Hi team, can someone confirm the assay call for "Nc1ncc(-c2cnn(CCO)c2)c2scc(-c3ccc(NC(=O)Nc4cccc(F)c4)cc3)c12" ?
// result inactive

###

Tested on: TK-10 renal
Test Description: NCI tumour cell line growth inhibition, 48 h
Tick YES if TGI is 20 µM or greater. Tick NO if TGI is less than 20 µM.

These recorded examples may help you get a feel for the data.
// query Record CC1(C)C2CC(O)C1(C)CC2=O (configuration not stated) ; criterion: TGI no lower than 20 µM. Met?
// result YES

// query Record "O=C(Nc1ccc(Cl)cc1)c1cc(-c2ccc(F)cc2)c2sc(=O)[nH]c2n1" ; criterion: TGI no lower than 20 µM. Met?
// result NO

New cases:
// query Record "CC1(n2nc(-c3ccccc3)n(-c3ccccc3)c2=O)CSC1" ; criterion: TGI no lower than 20 µM. Met?
// result YES

// query Record O=C(O)CC1OCC=C2CN3CCC45c6ccccc6NC4C1C2CC35 (configuration not stated) ; criterion: TGI no lower than 20 µM. Met?
// result YES

// query Record "CN(C)CCCn1c2c(c3ccccc3c1=O)C(=O)c1ccccc1-2" ; criterion: TGI no lower than 20 µM. Met?
// result NO

// query Record "CC1=C2C(=O)O[C@@H](c3ccoc3)[C@]2(C)CCC1" ; criterion: TGI no lower than 20 µM. Met?
// result YES

// query Record "COc1cc(OC)c(/C=C/C(=O)c2c(OC)cccc2OC)c(OC)c1" ; criterion: TGI no lower than 20 µM. Met?
// result YES

// query Record CCCCCCCCCCCCCC1CCC(CC)N1 (configuration not stated) ; criterion: TGI no lower than 20 µM. Met?
// result YES

// query Record COc1ccc(C2C(C(=O)O)=C(CO)Oc3cc4c(cc32)OCO4)cc1 (configuration not stated) ; criterion: TGI no lower than 20 µM. Met?
// result YES

// query Record "CCCN(CCc1ccc(-c2ccccc2)cc1)CCc1ccc2n[nH]nc2c1" ; criterion: TGI no lower than 20 µM. Met?
// result YES

// query Record "CN(C)c1ccc(N)cc1" ; criterion: TGI no lower than 20 µM. Met?
// result NO

// query Record "COC(=O)c1cc(Br)c(Br)n1C" ; criterion: TGI no lower than 20 µM. Met?
// result YES

###

Test system: K-562 leukemia
Test Description: NCI tumour cell line growth inhibition, 48 h; in the data active means GI50 below about 0.43 µM; inactive means the rest
Valid outcomes are listed here; reply with one: class 1 = active, class 0 = inactive

These recorded examples may help you get a feel for the data.
// query Hi team, can someone confirm the assay call for "N.N.N.N.N.O=C([O-])c1nn[n-]n1.[Cl-].[Co+3]" ?
// result class 0

// query Hi team, can someone confirm the assay call for "CN(C)CCOc1ccc(/C(=C(/CCCCCCCCCC[P+](c2ccccc2)(c2ccccc2)c2ccccc2)c2ccccc2)c2ccccc2)cc1" ?
// result class 1

// query Hi team, can someone confirm the assay call for CC(=O)OC1CC(O)C23COC(O)C1(C)C2CC(O)C1(C)C3C(=O)C(O)C2(C)C(c3ccoc3)CC3OC321 (stereo not drawn) ?
// result class 1

// query Hi team, can someone confirm the assay call for "CCN(CC)c1sc(N(CC)CC)c2c1SSSSS2" ?
// result class 0

// query Hi team, can someone confirm the assay call for "COC(=O)Nc1nc2ccc(Oc3ccc(NC(=O)Nc4ccccc4)cc3)cc2[nH]1" ?
// result class 1

New cases:
// query Hi team, can someone confirm the assay call for "CCC#CC[C@H]1C/C=C2/C(=O)C=C[C@@H]2C/C=C\CCCC(=O)O1" ?
// result class 0

// query Hi team, can someone confirm the assay call for "COc1ccc(C(=O)COc2cccc(/C=C3\COc4ccc5ccccc5c4C3=O)c2)cc1" ?
// result class 0

// query Hi team, can someone confirm the assay call for CC(=O)OC1Oc2ccccc2-c2oc(=O)c(-c3cc4ccc(N(C)C)cc4oc3=O)cc21 (stereo not drawn) ?
// result class 0

Ref: PubChem BioAssay (NCI)
